Reference for the values: ChEMBL document CHEMBL3585328

Recorded CAC by entry
# methodSummary: Critical aggregation concentration by at 37 degC isothermal titration calorimetry method
# Type: ADME
resultType: CAC

> print(dat)
                                querysmiles  observed
1  CCCCCCCCCCCCCC[N+](C)(C)Cc1cc(C[N+](C)(C)C)cc(C[N+](C)(C)CCCCCCCCCCCCCC)c1.[Br-].[Br-].[Br-]   0.61 mM
2  CCCCCCCCCCCCCCCC[N+](C)(C)Cc1cc(C[N+](C)(C)C)cc(C[N+](C)(C)CCCCCCCCCCCCCCCC)c1.[Br-].[Br-].[Br-]   0.16 mM
3  CCCCCCCCCCCCCCCC[N+](C)(C)Cc1cc(C[n+]2ccccc2)cc(C[N+](C)(C)CCCCCCCCCCCCCCCC)c1.[Br-].[Br-].[Br-]   0.18 mM
4  CCCCCCCCCC[N+](C)(C)Cc1cc(C[N+](C)(C)C)cc(C[N+](C)(C)CCCCCCCCCC)c1.[Br-].[Br-].[Br-]     12 mM
5  CCCCCCCCCCCC[N+](C)(C)Cc1cc(C[n+]2ccccc2)cc(C[N+](C)(C)CCCCCCCCCCCC)c1.[Br-].[Br-].[Br-]    2.4 mM
6  CCCCCCCCCCCC[N+](C)(C)Cc1cc(C[N+](C)(C)C)cc(C[N+](C)(C)CCCCCCCCCCCC)c1.[Br-].[Br-].[Br-]    2.5 mM
7  CCCCCCCCCCCCCC[N+](C)(C)Cc1cc(C[n+]2ccccc2)cc(C[N+](C)(C)CCCCCCCCCCCCCC)c1.[Br-].[Br-].[Br-]    0.6 mM
8  CCCCCCCCCC[N+](C)(C)Cc1cc(C[n+]2ccccc2)cc(C[N+](C)(C)CCCCCCCCCC)c1.[Br-].[Br-].[Br-]     14 mM

###

# Test system: Enterococcus faecalis
# methodSummary: Bactericidal activity against Enterococcus faecalis ATCC 29212 assessed as inhibition of bacterial growth incubated for 72 hrs followed by culture growth in Todd-Hewitt agar medium and incubated for 24 hrs at 37 degC
# Type: functional, organism-based
Active and inactive are the calls of the source. No cut-off for these calls is given here.
resultType: Activity

> print(dat)
                                 querysmiles  resulttype  observed
 1  CCCCCCCC[N+](C)(C)Cc1cc(C[n+]2ccccc2)cc(C[N+](C)(C)CCCCCCCC)c1    Activity    Active
 2  CCCCCCCCCC[N+](C)(C)Cc1cc(C[N+](C)(C)C)cc(C[N+](C)(C)CCCCCCCCCC)c1.[Br-].[Br-].[Br-]    Activity    Active
 3  CCCCCCCCCC[N+](C)(C)Cc1cc(C[n+]2ccccc2)cc(C[N+](C)(C)CCCCCCCCCC)c1.[Br-].[Br-].[Br-]    Activity    Active
 4  CCCCCCCCCCCCCC[N+](C)(C)Cc1cc(C[N+](C)(C)C)cc(C[N+](C)(C)CCCCCCCCCCCCCC)c1.[Br-].[Br-].[Br-]    Activity    Active
 5  CCCCCCCCCCCCCCCC[N+](C)(C)Cc1cc(C[N+](C)(C)C)cc(C[N+](C)(C)CCCCCCCCCCCCCCCC)c1.[Br-].[Br-].[Br-]    Activity    Active
 6  CCCCCCCCCCCCCC[N+](C)(C)Cc1cc(C[n+]2ccccc2)cc(C[N+](C)(C)CCCCCCCCCCCCCC)c1.[Br-].[Br-].[Br-]    Activity    Active
 7  CCCCCCCC[N+](C)(C)Cc1cc(C[N+](C)(C)C)cc(C[N+](C)(C)CCCCCCCC)c1    Activity    Active
 8  CCCCCCCCCCCC[N+](C)(C)Cc1cc(C[n+]2ccccc2)cc(C[N+](C)(C)CCCCCCCCCCCC)c1.[Br-].[Br-].[Br-]    Activity    Active
 9  CCCCCCCCCCCCCCCC[N+](C)(C)Cc1cc(C[n+]2ccccc2)cc(C[N+](C)(C)CCCCCCCCCCCCCCCC)c1.[Br-].[Br-].[Br-]    Activity    Active
10  CCCCCCCCCCCC[N+](C)(C)Cc1cc(C[N+](C)(C)C)cc(C[N+](C)(C)CCCCCCCCCCCC)c1.[Br-].[Br-].[Br-]    Activity    Active

###

Recorded MIC by entry
# System: Streptococcus agalactiae
# methodSummary: Antibacterial activity against Streptococcus agalactiae J48 assessed as inhibition of bacterial growth incubated for 72 hrs by CLSI based method
# Format: functional
# testConditions: J48, 72 h
resultType: MIC (µM)

> print(dat)
                                 querysmiles  resulttype  op  observed
 1  CCCCCCCCCCCCCCCC[N+](C)(C)Cc1cc(C[n+]2ccccc2)cc(C[N+](C)(C)CCCCCCCCCCCCCCCC)c1.[Br-].[Br-].[Br-]         MIC   >       250
 2  CCCCCCCCCCCCCCCC[N+](C)(C)Cc1cc(C[N+](C)(C)C)cc(C[N+](C)(C)CCCCCCCCCCCCCCCC)c1.[Br-].[Br-].[Br-]         MIC   =         8
 3  CCCCCCCCCC[N+](C)(C)Cc1cc(C[N+](C)(C)C)cc(C[N+](C)(C)CCCCCCCCCC)c1.[Br-].[Br-].[Br-]         MIC   =         4
 4  CCCCCCCC[N+](C)(C)Cc1cc(C[N+](C)(C)C)cc(C[N+](C)(C)CCCCCCCC)c1         MIC   >       250
 5  CCCCCCCC[N+](C)(C)Cc1cc(C[n+]2ccccc2)cc(C[N+](C)(C)CCCCCCCC)c1         MIC   >       250
 6  CCCCCCCCCCCC[N+](C)(C)Cc1cc(C[n+]2ccccc2)cc(C[N+](C)(C)CCCCCCCCCCCC)c1.[Br-].[Br-].[Br-]         MIC   =         1
 7  CCCCCCCCCCCC[N+](C)(C)Cc1cc(C[N+](C)(C)C)cc(C[N+](C)(C)CCCCCCCCCCCC)c1.[Br-].[Br-].[Br-]         MIC   =         2
 8  CCCCCCCCCCCCCC[N+](C)(C)Cc1cc(C[N+](C)(C)C)cc(C[N+](C)(C)CCCCCCCCCCCCCC)c1.[Br-].[Br-].[Br-]         MIC   =         2
 9  CCCCCCCCCCCCCC[N+](C)(C)Cc1cc(C[n+]2ccccc2)cc(C[N+](C)(C)CCCCCCCCCCCCCC)c1.[Br-].[Br-].[Br-]         MIC   =         4
10  CCCCCCCCCC[N+](C)(C)Cc1cc(C[n+]2ccccc2)cc(C[N+](C)(C)CCCCCCCCCC)c1.[Br-].[Br-].[Br-]         MIC   =         8

###

# System: Escherichia coli
# methodSummary: Antibacterial activity against Escherichia coli ATCC 25922 assessed as inhibition of bacterial growth incubated for 72 hrs by CLSI based method
# Format: functional
# testConditions: ATCC 25922, 72 h
Recorded log10 MIC by entry
resultType: log10 MIC (log10 of the value in µM)

> print(dat)
                                querysmiles  observed
1  CCCCCCCCCC[N+](C)(C)Cc1cc(C[n+]2ccccc2)cc(C[N+](C)(C)CCCCCCCCCC)c1.[Br-].[Br-].[Br-]      1.20
2  CCCCCCCCCCCCCCCC[N+](C)(C)Cc1cc(C[N+](C)(C)C)cc(C[N+](C)(C)CCCCCCCCCCCCCCCC)c1.[Br-].[Br-].[Br-]      1.80
3  CCCCCCCCCC[N+](C)(C)Cc1cc(C[N+](C)(C)C)cc(C[N+](C)(C)CCCCCCCCCC)c1.[Br-].[Br-].[Br-]      2.10
4  CCCCCCCCCCCC[N+](C)(C)Cc1cc(C[n+]2ccccc2)cc(C[N+](C)(C)CCCCCCCCCCCC)c1.[Br-].[Br-].[Br-]      0.60
5  CCCCCCCCCCCCCC[N+](C)(C)Cc1cc(C[N+](C)(C)C)cc(C[N+](C)(C)CCCCCCCCCCCCCC)c1.[Br-].[Br-].[Br-]      0.90
6  CCCCCCCCCCCC[N+](C)(C)Cc1cc(C[N+](C)(C)C)cc(C[N+](C)(C)CCCCCCCCCCCC)c1.[Br-].[Br-].[Br-]      0.60

###

# Tested on: Escherichia coli
# methodSummary: Antibacterial activity against Escherichia coli ATCC 25922 assessed as inhibition of bacterial growth incubated for 72 hrs by CLSI based method
# Assay type: functional
# testConditions: ATCC 25922, 72 h
resultType: MIC

> print(dat)
                                querysmiles  observed
1  CCCCCCCCCCCCCC[N+](C)(C)Cc1cc(C[n+]2ccccc2)cc(C[N+](C)(C)CCCCCCCCCCCCCC)c1.[Br-].[Br-].[Br-]     16 µM
2  CCCCCCCCCCCCCCCC[N+](C)(C)Cc1cc(C[n+]2ccccc2)cc(C[N+](C)(C)CCCCCCCCCCCCCCCC)c1.[Br-].[Br-].[Br-]  > 250 µM
3  CCCCCCCC[N+](C)(C)Cc1cc(C[N+](C)(C)C)cc(C[N+](C)(C)CCCCCCCC)c1  > 250 µM
